system: differentiated 3T3-L1 adipocytes; experiment: Glucose transport assay (2-deoxy-D-glucose uptake); type: cell-based; conditions: 50 μM compound + 100 nM insulin, 48 hr
MEASURE NAME: Fold Stimulation (50 μM) of 2-deoxy-D-glucose uptake, Insulin + Compound (fold)
Supply the numeric figure in fold, leaving out any unit text.

Look over these answered cases.
Cc1oc(-c2ccccc2)nc1CCOc1ccc2c(c1)OCC(C(=O)O)C2 (centres unmarked) ... 8.4
Cc1oc(-c2ccccc2)nc1COc1ccc2c(c1)OCC(C(=O)O)C2 (centres unmarked) ... 10.7
Cc1oc(-c2ccccc2)nc1CCOc1ccc2c(c1)OCC(C(N)=O)C2 (centres unmarked) ... 8.8
Cc1oc(-c2ccc(-c3ccccc3)cc2)nc1CCOc1ccc2c(c1)OCC(C(=O)O)C2 (centres unmarked) ... 6.4

// below: Fold Stimulation (50 μM) of 2-deoxy-D-glucose uptake, Insulin + Compound requested for another compound
Sample Cc1oc(-c2ccc(Br)cc2)nc1COc1ccc2c(c1)OCC(C(=O)O)C2 (centres unmarked) — what was its Fold Stimulation (50 μM) of 2-deoxy-D-glucose uptake, Insulin + Compound?
5.1

---

As shown below, each of these compounds has a reported Fold Stimulation (50 μM) of 2-deoxy-D-glucose uptake, Insulin + Compound value.
system: differentiated 3T3-L1 adipocytes; test: Glucose transport assay (2-deoxy-D-glucose uptake); type: cell-based; details: 50 μM compound + 100 nM insulin, 48 hr
I only need the number, in fold, no unit after it.

CCc1ccc(CCOc2ccc(CC3SC(=O)NC3=O)cc2)nc1 (stereo not shown) [Pioglitazone, reference compound] ... 7.6
Cc1oc(-c2ccccc2)nc1CCCOc1ccc2c(c1)OCC(C(=O)O)C2 (stereo not shown) [Example 7] ... 6.5
Cc1oc(-c2ccc(-c3ccccc3)cc2)nc1COc1ccc2c(c1)OCC(C(=O)O)C2 (stereo not shown) [Example 11] ... 4.6

Bench note: what Fold Stimulation (50 μM) of 2-deoxy-D-glucose uptake, Insulin + Compound did Cc1oc(-c2cccs2)nc1CCOc1ccc2c(c1)OCC(C(=O)O)C2 (stereo not shown) [Example 4] show?
7.6

---

test system: differentiated 3T3-L1 adipocytes; assay: Glucose transport assay (2-deoxy-D-glucose uptake); type: cell-based; conditions: Mus musculus, 50 μM compound alone, 48 hr, read-out: Fold Stimulation (50 μM) of 2-deoxy-D-glucose uptake, Compound only
Listed below: fold induction at 50 µM values for each entry.
Please reply with the number alone, leaving off any unit.

COC(=O)C1COc2cc(OCCc3nc(-c4ccccc4)oc3C)ccc2C1 (stereo not drawn) ... 1.1

Turning now to a further record.
Recorded fold induction at 50 µM for Cc1oc(-c2ccc(F)cc2)nc1CCOc1ccc2c(c1)OCC(C(=O)O)C2 (stereo not drawn) , please?
1.3

---

Quick reference: Fold Stimulation (50 μM) of 2-deoxy-D-glucose uptake, Insulin + Compound of the listed items.
Test system: differentiated 3T3-L1 adipocytes
Experiment: Glucose transport assay (2-deoxy-D-glucose uptake)
Format: cell-based
Details: 50 μM compound + 100 nM insulin, 48 hr
Description: 3T3-L1 fibroblasts (American Type Culture Collection) were plated and grown for 2 days postconfluence in Dulbecco's modified Eagle's medium (DMEM; 4,500 mg/L glucose, HyClone) supplemented 10% FBS, 10 μg/mL penicillin and streptomycin in an atmosphere of 5% CO2 at 37° C. […] Glucose transport activity was measured in the presence or absence of insulin and the protocol was modified from Kletzien, R F et al. (1992) Molecular Pharmacology 41:393-398. […]
# value in fold; strip the unit string

Past entries and their recorded results:
O=C(O)C1COc2cc(OCCc3nc(-c4ccccc4)oc3-c3ccccc3)ccc2C1 (stereo not drawn) ... 8.1
Cc1oc(-c2ccccc2)nc1CCOc1ccc2c(c1)OCC(CC(=O)O)C2 (stereo not drawn) ... 6.9
Cc1oc(-c2ccccc2)nc1CCOc1ccc2c(c1)OCC(C(=O)NS(C)(=O)=O)C2 (stereo not drawn) ... 6.2
COC(=O)C1COc2cc(OCCc3nc(-c4ccccc4)oc3C)ccc2C1 (stereo not drawn) ... 6.0
Cc1oc(-c2ccc(F)cc2)nc1CCOc1ccc2c(c1)OCC(C(=O)O)C2 (stereo not drawn) ... 5.9

I'd like to know its Fold Stimulation (50 μM) of 2-deoxy-D-glucose uptake, Insulin + Compound. The molecule in question is Cc1oc(-c2ccccc2)nc1CCOc1ccc2c(c1)OCC(C(=O)NS(=O)(=O)c1ccccc1)C2 (stereo not drawn)
8.8
